Reported values of TGI for individual entries
test system: HL-60(TB) leukemia; test: NCI tumour cell line growth inhibition, 48 h

Some entries whose results are on file:
compound=COC(=O)c1cc(/C=C/C(=O)Cc2ccccc2)cn1S(=O)(=O)c1ccccc1 recorded_measurement="> 100 µM"
compound="CCOC(=O)C1=C(C)NC2SC(=O)/C(=C\\c3cccc(Cl)c3)N2C1c1ccccc1 (stereo not drawn)" recorded_measurement="> 100 µM"
compound=NS(=O)(=O)c1ccc(N=Nc2c(O)[nH]c3ccc(C(=O)NCCCn4ccnc4)cc23)cc1 recorded_measurement="> 25 µM"

Quick one: TGI for `NNC(=O)/C(NC(=O)c1ccccc1)=C(\N)c1cccc([N+](=O)[O-])c1` ? > 100 µM

Request: `O=C1CCC(=O)c2ccccc2N1` > 100 µM

How about this compound: `CCOC(=O)/C(=C\c1c[nH]c2ccccc12)P(=O)(OCC)OCC` 62 µM

Same question for `CC(=O)Oc1ccc2c(=O)c(C(C)=O)coc2c1` please. > 100 µM

----------
tested on: RXF 393 renal; assay: NCI tumour cell line growth inhibition, 48 h
measured.parameter: TGI

Completed entries (count: 3):
molecule=CC(C)N(CC(=O)O)CC(=O)O measured_parameter=TGI recorded_measurement="> 100 µM"
molecule=Cc1cc2c(cc1Cl)SC(NNCCO)=NS2(=O)=O measured_parameter=TGI recorded_measurement="> 100 µM"
molecule=COC(C)=NCCC1=CCCCC1 measured_parameter=TGI recorded_measurement="> 100 µM"

Endpoint output: TGI of `CCOC(=O)/C(C1=NCCN1C)=C(\O)c1ccccc1` . Value? > 100 µM

Same question for N#CC1=C(N)N=C(N2CCOCC2)C(C#N)C12Nc1ccccc1S2 (stereo not given) please. > 100 µM

And for CC(=O)N1C(c2[nH]c3ccccc3c2Cc2ccccc2)CCN1c1ccccc1 (stereo not given) ? > 10 µM

Same again, this time with CC(C)CC(N)C(=O)NC(CNC(CCC(N)=O)C(=O)NC(CC(C)C)C(=O)NC(CC(C)C)C(=O)O)Cc1ccc2ccccc2c1 (stereo not given) > 10 µM

// query: `Nc1ccc(-c2nc3ccccc3s2)cc1CO` > 100 µM

Repeat for the following molecule: `CC(C)(C)OC(=O)N(O)CCCn1cnc2c(NC3CC3)ncnc21` > 100 µM

Thanks! And O=C(O)C1=C(CO)Oc2cc3c(cc2C1c1ccc2c(c1)OCO2)OCO3 (stereo not given) ? > 100 µM

----------
system: CAKI-1 renal; assay: NCI tumour cell line growth inhibition, 48 h
measured.parameter: TGI

Illustrative cases are given below, each with its answer.
molecule=COc1ccc(C[C@H]2COC(=O)[C@@H]2Cc2ccc(Br)cc2)cc1OC recorded_measurement="> 84 µM"
molecule="CN1CCS(=O)(=O)NC(Cc2ccccc2)C(=O)N2CCCC2C1=O (stereo not drawn)" recorded_measurement="> 100 µM"

Now examine the next entry.
What does the record list as TGI for `Nc1c(F)c(F)c2c(c1F)N(CCCCCl)c1ccccc1S2` ? > 100 µM

----------
test system: CCRF-CEM leukemia; assay: NCI tumour cell line growth inhibition, 48 h
measured.parameter: GI50

compound="CCOc1cc(Cl)c(C(C)NC(=O)c2cccc(OC)c2)cc1OCC (stereo not given)" measured_parameter=GI50 recorded_measurement="11.7 µM"

Quick check: GI50 on CCRF-CEM leukemia, item `COc1ccccc1CNCCCN1C(=O)c2ccc3c4c(ccc(c24)C1=O)C(=O)N(CCCNCCCCNCCCN)C3=O` ? 0.425 µM

Record: `CCOC(=O)c1c(-c2ccccc2)n2c(=O)cc(C)c3c(O)c(O)cc1c32` 1.59 µM

Next record, please: `CCN1CCN(Cc2ccc(NC(=O)Nc3nc(-c4cc(OC)c(OC)c(OC)c4)cs3)cc2C(F)(F)F)CC1` 1.87 µM

Also need `O=S(=O)(NCCNc1nccc(-c2c(-c3ccc(F)cc3)nc3sccn23)n1)c1ccc(O)cc1` , thanks. 2 µM

Check `Cc1nc2ccc(-n3ncc(C(=O)c4cc5ccccc5[nH]4)c3N)cc2[nH]1` too. 9.24 µM

Now consider `CO/N=C(/C)COc1ccc2c(c1)oc(=O)c1cc(OC)ccc12` and answer again. > 100 µM

Check C=C(C(=O)c1ccccc1)C(NC(C)(C)C)c1ccccc1 (stereo not given) too. 0.629 µM

Next compound: COc1ccc(C2=C(c3ccccc3)C(=O)N3CCCC3C2)cc1 (stereo not given) 1.79 µM

Similarly, `COc1ccc2nc3cc([N+](=O)[O-])ccc3c(NCCO)c2c1` ? 2.17 µM

The reported numbers originate from PubChem BioAssay (NCI).
